Biological target: recombinant Factor C (rFC) (Carcinoscorpius rotundicauda)
Construct: made in house; host or cells: Culture supernatant, lot 031901I
Experiment: recombinant Factor C (rFC) assay with different detergents and detergent concentrations
Format: biochemical
Protocol: The recombinant Factor C (rFC) assay was carried out using 20 μl of each detergent (˜10× of final concentration), 150 μl of 1 EU/ml EC-6, 10 μl of rFC supernatant 031901I, 20 μl of 300 mM Tris, pH 8.0, and 20 μl of 0.55 mM DPR-coumarin substrate. The results of the assay were read at 38° C. using a Cytofluor reader set at 390/440 nm, 5 minutes per cycle, for 1 hour. The data were graphed after 30 minutes.
REPORTED_METRIC: width of the enhancing concentration range

>  <COMPOUND>
CCCCCCCCCCCC(=O)OCCOCCOCCOCCOCCOCCOCCOCCOCCOCCOCCOCCOCCOCCOCCOCCOCCOCCOCCOCCOCC(OCCOCCOCCOCCOCCOCCOCCOCCOCCOCCOCCOCCOCCOCCOCCOCCOCCOCCOCCOCCO)C1OCC(OCCOCCOCCOCCOCCOCCOCCOCCOCCOCCOCCOCCOCCOCCOCCOCCOCCOCCOCCOCCO)C1OCCOCCOCCOCCOCCOCCOCCOCCOCCOCCOCCOCCOCCOCCOCCOCCOCCOCCOCCOCCO (stereo not shown)

>  <MEASURED_TARGET>
recombinant Factor C (rFC) (Carcinoscorpius rotundicauda)

>  <ASSAY_RESULT>
wide

$$$$
>  <COMPOUND>
CCCCCCCCCCCCCC[N+](C)(C)CCCS(=O)(=O)[O-]

>  <MEASURED_TARGET>
recombinant Factor C (rFC) (Carcinoscorpius rotundicauda)

>  <ASSAY_RESULT>
narrow

$$$$
>  <COMPOUND>
CCCCCCCC/C=C\CCCCCCCC(=O)OCCOCC(OCCO)C1OCC(OCCO)C1OCCO (stereo not shown) [Tween 80, polyoxyethylene (20) sorbitan monooleate]

>  <MEASURED_TARGET>
recombinant Factor C (rFC) (Carcinoscorpius rotundicauda)

>  <ASSAY_RESULT>
wide

$$$$
>  <COMPOUND>
CCCCCCCCS[C@@H]1O[C@H](CO)[C@@H](O)[C@H](O)[C@H]1O [OTG, n-Octyl-beta-D-thioglycopyranoside]

>  <MEASURED_TARGET>
recombinant Factor C (rFC) (Carcinoscorpius rotundicauda)

>  <ASSAY_RESULT>
narrow

$$$$

###

The following compounds are listed with their measured Detergent concentration range for rFC inhibition values.
Molecular target: recombinant Factor C (rFC) (Carcinoscorpius rotundicauda)
Construct: made in house; host or cells: Culture supernatant, lot 031901I
Sequence (Q26422 26-1019): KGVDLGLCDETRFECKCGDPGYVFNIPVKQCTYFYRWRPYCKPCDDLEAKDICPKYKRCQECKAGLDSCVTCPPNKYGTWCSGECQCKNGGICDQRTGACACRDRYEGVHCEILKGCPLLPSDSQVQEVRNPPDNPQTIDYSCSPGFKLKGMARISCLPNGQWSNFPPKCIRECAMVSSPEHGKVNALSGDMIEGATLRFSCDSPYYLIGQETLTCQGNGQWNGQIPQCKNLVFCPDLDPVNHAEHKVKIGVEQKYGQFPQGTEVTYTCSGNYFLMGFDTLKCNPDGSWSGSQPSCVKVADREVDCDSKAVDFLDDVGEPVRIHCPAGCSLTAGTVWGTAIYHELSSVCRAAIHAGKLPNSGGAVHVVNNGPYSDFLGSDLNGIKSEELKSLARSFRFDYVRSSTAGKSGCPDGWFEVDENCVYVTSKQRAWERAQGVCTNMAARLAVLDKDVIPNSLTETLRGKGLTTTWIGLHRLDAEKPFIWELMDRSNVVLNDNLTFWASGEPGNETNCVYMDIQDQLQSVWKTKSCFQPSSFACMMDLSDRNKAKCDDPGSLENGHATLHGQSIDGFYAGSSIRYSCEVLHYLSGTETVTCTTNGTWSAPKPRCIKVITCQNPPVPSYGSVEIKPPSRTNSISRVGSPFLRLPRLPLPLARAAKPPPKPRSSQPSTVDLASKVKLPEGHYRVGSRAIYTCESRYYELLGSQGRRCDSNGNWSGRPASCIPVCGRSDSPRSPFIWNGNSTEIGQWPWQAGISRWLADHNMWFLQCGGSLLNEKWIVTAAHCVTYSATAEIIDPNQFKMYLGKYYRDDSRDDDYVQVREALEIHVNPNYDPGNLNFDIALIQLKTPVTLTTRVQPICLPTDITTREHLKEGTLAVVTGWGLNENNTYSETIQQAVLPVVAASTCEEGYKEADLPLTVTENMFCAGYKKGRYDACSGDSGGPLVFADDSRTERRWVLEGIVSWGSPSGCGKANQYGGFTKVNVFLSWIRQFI
Test: recombinant Factor C (rFC) assay with different detergents and detergent concentrations
Format: biochemical
Conditions: 1 EU/ml EC-6 endotoxin, DPR-coumarin substrate, data after 30 minutes

Q: For the compound CCCCCCCC/C=C\CCCCCCCC(=O)OCCOCC(OCCO)C1OCC(OCCO)C1OCCO (centres unmarked) [Tween 80, polyoxyethylene (20) sorbitan monooleate] , what Detergent concentration range for rFC inhibition is on record?
A: >0.25%

Q: For the compound CCCCCCCCCCCC(=O)OCCOCCOCCOCCOCCOCCOCCOCCOCCOCCOCCOCCOCCOCCOCCOCCOCCOCCOCCOCCOCC(OCCOCCOCCOCCOCCOCCOCCOCCOCCOCCOCCOCCOCCOCCOCCOCCOCCOCCOCCOCCO)C1OCC(OCCOCCOCCOCCOCCOCCOCCOCCOCCOCCOCCOCCOCCOCCOCCOCCOCCOCCOCCOCCO)C1OCCOCCOCCOCCOCCOCCOCCOCCOCCOCCOCCOCCOCCOCCOCCOCCOCCOCCOCCOCCO (centres unmarked) [Tween 20] , what Detergent concentration range for rFC inhibition is on record?
A: >0.5%

# credit: patent US20040235080A1
